Values compiled from patent US20210087281A1.

Quick reference: scatter score 0-4, MLP29, 9.000 nM of the listed items.
target: native mouse MET on living cells (mouse, UniProt P16056 25-1379); assay: cell-based or functional assay
Provide only the numeric value, understood in score.

- BINDER: "74C8 chimeric llama-human IgG1 mAb (antibody, V domains shown, llama VH on human IgG1 CH1-CH2-CH3, llama VL on human lambda CL) VH: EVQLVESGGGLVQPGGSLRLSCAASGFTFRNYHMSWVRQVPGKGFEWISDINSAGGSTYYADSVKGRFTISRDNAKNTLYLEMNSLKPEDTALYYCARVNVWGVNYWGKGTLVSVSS VL: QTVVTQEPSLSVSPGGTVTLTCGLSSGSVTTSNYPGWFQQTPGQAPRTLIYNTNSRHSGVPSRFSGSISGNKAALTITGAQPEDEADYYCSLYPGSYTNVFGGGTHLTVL"
  READING: 4

Read the next record carefully.
Data request, read-out scatter score 0-4, MLP29, 9.000 nM, for 71D6 chimeric llama-human IgG1 mAb (antibody, V domains shown, llama VH on human IgG1 CH1-CH2-CH3, llama VL on human lambda CL) VH: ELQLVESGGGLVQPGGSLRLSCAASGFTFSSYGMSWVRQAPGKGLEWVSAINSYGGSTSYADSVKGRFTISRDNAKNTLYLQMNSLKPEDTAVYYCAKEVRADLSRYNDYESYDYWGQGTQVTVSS VL: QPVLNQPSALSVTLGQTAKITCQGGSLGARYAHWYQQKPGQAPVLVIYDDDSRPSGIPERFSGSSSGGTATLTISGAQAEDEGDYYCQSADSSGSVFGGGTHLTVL 4
